- MEASUREMENT_NOTES: photoredox thiol-yne dihydrothiolation of acetylene by dithiol ([1+1] macrocyclisation, forms S-CH2CH2-S bridge); [Ir(d(tBu)(CF3)ppy)2(dtbbpy)]Cl 1 mol%, DIPEA 1.5 equiv, acetylene balloon, blue LEDs 455 nm
- CONDITIONS_USED: the molecule shown is the open-chain precursor; 17-membered ring; DMF/H2O 50:1; 50.0 mM; 25.0 °C; 12.0 h
Can you tell me ring closure, isolated yield for the items I'm about to list?
Supply the numeric figure in %, leaving out any unit text.

In: Which measured ring closure, isolated yield value corresponds to O=C(CCS)OCCOCCOC(=O)CCS [23] ?
Out: 29

In: Also O=C(CCS)OCc1cccc(COC(=O)CCS)c1 [36] ?
Out: 37

In: Also O=C(CCS)OCCCCCOC(=O)CCS [11] ?
Out: 38

In: Also O=C(CCS)OCc1cccc(COC(=O)CCS)n1 [40] ?
Out: 32

In: Also O=C(CCS)OCc1ccc(COC(=O)CCS)o1 [41] ?
Out: 15

In: Also O=C(CCS)OCCN(CCOC(=O)CCS)c1ccccc1 [27] ?
Out: 38

----------
Can you tell me ring closure, isolated yield for the items I'm about to list?
- MEASUREMENT_NOTES: photoredox thiol-yne dihydrothiolation of acetylene by dithiol ([1+1] macrocyclisation, forms S-CH2CH2-S bridge); [Ir(d(tBu)(CF3)ppy)2(dtbbpy)]Cl 1 mol%, DIPEA 1.5 equiv, acetylene balloon, blue LEDs 455 nm
- CONDITIONS_USED: the molecule shown is the open-chain precursor; 23-membered ring; DMF/H2O 50:1; 50.0 mM; 25.0 °C; 12.0 h
Supply the numeric figure in %, leaving out any unit text.

In: Which measured ring closure, isolated yield value corresponds to CN(CC(=O)OCCCCCCS)CC(=O)OCCCCCCS ?
Out: 24

In: Also O=C(COCC(=O)OCCCCCCS)OCCCCCCS ?
Out: 23

In: Also O=C(CCS)OCCOCCOCCOCCOC(=O)CCS ?
Out: 27

In: Also O=C(OCCCCCCS)C12CC3CC(C1)CC(C(=O)OCCCCCCS)(C3)C2 ?
Out: 32
